target: human ALK GRD (678-1030) E978R (human, UniProt Q9UM73 678-1030, E978R)
Sequence (Q9UM73 678-1030 E978R): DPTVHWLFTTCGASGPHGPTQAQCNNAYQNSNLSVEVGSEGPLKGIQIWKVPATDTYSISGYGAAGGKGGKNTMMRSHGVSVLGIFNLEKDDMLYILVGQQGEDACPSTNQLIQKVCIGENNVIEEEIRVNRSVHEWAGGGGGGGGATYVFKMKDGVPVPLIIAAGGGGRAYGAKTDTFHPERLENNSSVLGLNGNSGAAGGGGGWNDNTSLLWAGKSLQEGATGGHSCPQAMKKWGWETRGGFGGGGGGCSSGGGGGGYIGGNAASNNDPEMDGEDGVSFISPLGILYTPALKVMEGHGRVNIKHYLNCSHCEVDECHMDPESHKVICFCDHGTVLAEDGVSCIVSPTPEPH
assay-text: BLI
endpoint-label: pKd
Just the number, please; pKd means minus log10 of the concentration in mol/L.

Challenge: Give its pKd value. Item: human ALKAL2 ALKAL domain (ALKAL2-AD), residues 71-152, wild type (ligand, UniProt Q6UX46 71-152, looked up) AEAAGLGPSPEQRVEIVPRDLRMKDKFLKHLTGPLYFSPKCSKHFHRLYHNTRDCTIPAYYKRCARLLTRLAVSPVCMEDKQ
Response given: 5.21
